System: T. cruzi intracellular amastigotes in H9c2 cells
Assay: Rate-of-Kill (RoK) high-content imaging assay, amastigotes per cell (AM/CELL) and curve descriptors
Assay type: cell-based, Trypanosoma cruzi
Conditions: maximum effect at 72 h, RoK assay
observation-type: ME_72h (%)
Numbers only, in %.

These recorded examples may help you get a feel for the data.
# compound, system-under-test, observation-type, quantitative-readout
data = [
    ("CC[C@@H]([C@H](C)O)n1ncn(-c2ccc(N3CCN(c4ccc(OC[C@@H]5CO[C@@](Cn6cncn6)(c6ccc(F)cc6F)C5)cc4)CC3)cc2)c1=O [Posaconazole, reference compound]", "T. cruzi intracellular amastigotes in H9c2 cells", "ME_72h (%)", 50.7),
    ("N#Cc1cc(N2CCCC2=O)ccc1Sc1ccccc1CO", "T. cruzi intracellular amastigotes in H9c2 cells", "ME_72h (%)", 78.2),
    ("O=C(CSc1ccc(-c2ccccn2)nn1)Nc1ccc(Cl)cc1", "T. cruzi intracellular amastigotes in H9c2 cells", "ME_72h (%)", 85.9),
    ("COc1cc(C(C)C)c(S(C)(=O)=O)cc1C(=O)N1CCN(c2ccccc2Cl)CC1", "T. cruzi intracellular amastigotes in H9c2 cells", "ME_72h (%)", 23.0),
    ("Cl.O=c1cc(NCCCNC2CCOc3c(I)cc(Cl)cc32)[nH]c2ccccc12 (stereo not shown)", "T. cruzi intracellular amastigotes in H9c2 cells", "ME_72h (%)", 58.9),
    ("c1ccc2c(CCOc3nccnc3-c3ccncc3)c[nH]c2c1", "T. cruzi intracellular amastigotes in H9c2 cells", "ME_72h (%)", 12.9),
]

Let's switch to this compound now.
In: Given O=C(CSc1ccc(F)cc1)N[C@@H](Cc1cnc[nH]1)C(=O)NCCc1ccccc1.O=C(O)C(F)(F)F , state its recorded ME_72h (%).
Out: 44.6

* * *

Test system: T. cruzi intracellular amastigotes in H9c2 cells
Experiment: Rate-of-Kill (RoK) high-content imaging assay, amastigotes per cell (AM/CELL) and curve descriptors
Format: cell-based, Trypanosoma cruzi
Conditions: Time 24; figure 4 A
observation-type: AM/CELL NORM
Numbers only.

These recorded examples may help you get a feel for the data.
# compound, quantitative-readout
measured = [
    ("Fc1ccc(OC2CC(NCc3cccc4cn[nH]c34)C2)cc1C(F)(F)F (stereo not shown)", 25.577),
    ("CC(=O)Nc1ccc(-c2noc(CC3CCCN(Cc4cccc(F)c4C)C3)n2)cc1 (stereo not shown)", 28.3063),
    ("Cc1sc(C)c(C(F)(F)F)c1CNCCCNc1cc(=O)c2ccccc2[nH]1.Cl", 58.2122),
]

Let's switch to this compound now.
In: Given COc1cc(NC(=O)Nc2cccc(CNC(=O)OC3CCCCC3)c2)ccc1-c1cnco1 , state its recorded AM/CELL NORM.
Out: -229.157

* * *

Assign t50%_MCC50 to each entry below.
Tested on: T. cruzi intracellular amastigotes in H9c2 cells
Experiment: Rate-of-Kill (RoK) high-content imaging assay, amastigotes per cell (AM/CELL) and curve descriptors
Format: cell-based, Trypanosoma cruzi
Details: at MCC50
Experimental: For this high-content intracellular imaging assay, H9c2 cells were seeded in 225 cm^2 T- FLASK in DMEM with 10% FBS for 4 h to allow attachment. […] Trypomastigotes were then collected and counted in a CASY Cell Counter using the 60 μm capillary. […] Cells were counted in a CASY Cell Counter, using the 150 μm capillary, and their density set at 5 x 10^4 cells/mL in supplemented DMEM. […] Then plates were read in a PerkinElmer Opera Phenix using a 20x objective, 3 fields per well. […]
Give bare numbers, in h.

These recorded examples may help you get a feel for the data.
# compound, unit, quantitative-readout
data = [
    ("CC[C@@H]([C@H](C)O)n1ncn(-c2ccc(N3CCN(c4ccc(OC[C@@H]5CO[C@@](Cn6cncn6)(c6ccc(F)cc6F)C5)cc4)CC3)cc2)c1=O [Posaconazole, reference compound]", "h", 54.2),
    ("CN(C)Cc1ccc(-c2ccc(S(=O)(=O)NCC3CCCO3)c(F)c2)cc1.O=C(O)C(F)(F)F (stereo not drawn)", "h", 72.0),
    ("CCN(CC)S(=O)(=O)c1ccc(C(=O)Nc2cc(C)nn2-c2nc(C)c(C)c(=O)[nH]2)cc1", "h", 72.0),
    ("Cc1cccc(N2CCCN(Cc3c[nH]c4ccccc34)CC2)n1", "h", 48.0),
    ("CS(=O)(=O)c1cccc(-c2cnc(N)c3c(-c4ccc(CO)cc4)csc23)c1.O=C(O)C(F)(F)F", "h", 72.0),
]

Hey, quick one: what's t50%_MCC50 for each of these?
1. O=C(C1CCCCC1)N1CCN(c2nnc(-c3ccccc3)c3ccccc23)CC1
2. CCCCn1nnnc1CSc1nc(C)cc(C)c1C#N
3. Cc1cc(N(C)C)nc(Nc2ccccc2C)n1
4. CCCn1c(NC(=O)Cc2ccc(Cl)cc2)nc2ccccc21
5. Cc1ccc(C)c(OC2CCN(C(=O)C(C)n3ccnc3)CC2)c1 (stereo not drawn)
6. Cc1nnnn1-c1cccc(C(=O)N2CCC[C@@]3(C)c4ncncc4CCC23)c1 (stereo partly drawn)
7. CCN(C)Cc1ccc(N2CCC(NS(=O)(=O)c3ccc4c(c3)CCO4)CC2)nc1
8. O=C(NCCc1cccnc1)c1ccc(-c2ccccc2F)o1

Out:
[72.0, 48.0, 48.0, 48.0, 72.0, 72.0, 72.0, 72.0]

Hey, quick one: what's t50%_MCC50 for each of these?
1. COc1ccc(S(=O)(=O)NCc2ccc(-c3ccc(CN(C)CCO)cc3)cc2)cc1.O=C(O)C(F)(F)F
2. CS(=O)(=O)c1ccc(CC(=O)Nc2nc(-c3ccc(Cl)s3)cs2)cc1

Out:
72.0
72.0
